Entry flag: Satisfied if solubility kinetic reaches 20 µM; Not satisfied if it does not.

- CC(C)[C@H](Nc1ncnc2[nH]c(-c3cnn(C)c3C#N)cc12)c1ccc2c(c1)OCCO2: Not satisfied
- CC[C@H](Cc1nnn[nH]1)c1ccc(NC(=O)c2cc(Cl)cc(NC(=O)OCc3ccccc3)c2)cc1 (racemic): Satisfied
- O=C(NCC(F)(F)F)c1cc(Cl)c(F)cc1NS(=O)(=O)c1ccc(Oc2ccccc2Cl)cc1: Not satisfied
- NCc1cccc(NC(=O)C[C@H](NC(=O)OCc2ccccc2)c2ccc(OCc3ccccc3)c(Br)c2)c1 (racemic): Satisfied
- CNC(=O)c1cc2c(N[C@H](c3ccc4c(c3)NC(=O)CO4)C(C)C)ncnc2[nH]1 (single isomer, unassigned): Satisfied
- COc1cc(Cc2c(-c3ccc(F)cc3)noc2C)nc(N2CCNCC2)n1: Satisfied
- CC(C)[C@H](Nc1ncnc2[nH]c(-c3cnn(CC(=O)N(C)C)c3)cc12)c1ccc2c(c1)S(=O)(=O)CCC2 (racemic): Satisfied

====

Documented Papp across a set of compounds
Conditions: mdck_mdr1
parameter-measured: Papp (×10⁻⁶ cm/s)

• NCCc1ccc(NC(=O)c2cc(Cl)cc(NC(=O)OCc3ccccc3)c2)cc1 = 0.791
• CC(C)[C@H](Nc1ncnc2[nH]c(-c3cnn(C)c3C#N)cc12)c1ccc2c(c1)OCCO2 (racemic) = 4.2
• NCc1cccc(NC(=O)CN(C(=O)OCc2ccccc2)c2ccc(OCc3ccccc3)cc2)c1 = 0.899
• CC(C)(C)[C@H](Nc1ncnc2[nH]c(-c3cnn(CC(N)=O)c3)cc12)c1ccc2c(c1)OCCO2 (racemic) = 1.66
• O=C(O)c1cc(Cl)ccc1S(=O)(=O)NC1CCN(c2nc(C3CC3)cc(C(F)(F)F)n2)CC1 = 3.65
• O=C(NCC(F)F)[C@H](Nc1cc2c(cc1Br)CNC2)c1cc(Cl)cc(C2CC2)c1 (racemic) = 0.2
• CNC(=O)[C@H](Nc1ccc(-c2nnn[nH]2)cc1)c1cc(Cl)cc(C2CC2)c1 (racemic) = 1.6
• C=C[C@H]1CN2CC[C@H]1C[C@@H]2[C@@H](O)c1ccnc2ccc(OC)cc12 = 13.9

====

Given measured solubility kinetic, output label 1 if it is greater than or equal to 200 µM and label 0 if not.

* CC(C)c1nc2c(C(=O)Nc3cccc(CN)c3)cccc2[nH]1 | label 1
* NCc1cccc(NC(=O)CN(C(=O)OCc2ccccc2)c2ccc(OCc3ccccc3)cc2)c1 | label 0
* O=C(NCCCF)[C@H](Nc1ccc2c(c1)CNC2)c1cc(Cl)cc(C2CC2)c1 (racemic) | label 1
* O=C(N[C@H]1[C@H]2CCCCC[C@H]2[C@H]1C(=O)Nc1cccc(C2CCNCC2)c1)OCc1ccccc1 (racemic) | label 0
* O=C(Nc1cc2c(c(C3=CCOCC3)c1)CNC2)c1cc(F)cc2[nH]ncc12 | label 0
* O=C(NCC(F)F)[C@H](Nc1ccc2c(c1)CNC2)c1cc(Cl)cc2ccoc12 (racemic) | label 0
* CC(C)[C@H](Nc1ncnc2[nH]c(-c3cnn(C)c3C#N)cc12)c1ccc2c(n1)OCCO2 (racemic) | label 0
* O=C(Nc1cc(Cl)cc(C(=O)Nc2cccc(C3CCNCC3)c2)c1)OCc1ccccc1 | label 0
* CC(C)[C@H](Nc1ncnc2[nH]c(-c3cnn(C)c3C#N)cc12)c1ccc2c(c1)S(=O)(=O)CCC2 (racemic) | label 0
* CNCc1cc(-c2cc3c(N[C@H](c4ccc5c(c4)S(=O)(=O)NCC5)C(C)C)ncnc3[nH]2)co1 (racemic) | label 1
* CCNC(=O)c1cc2c(N[C@H](c3ccc4c(c3)S(=O)(=O)NCC4)C(C)C)ncnc2[nH]1 (racemic) | label 1
* NCc1cccc(NC(=O)[C@@H](NC(=O)OCc2ccccc2)c2ccc(OCc3ccccc3)cc2)c1 | label 0
* O=C(O)Cn1ncc2cc(-c3cc(Cl)cc(NC(=O)OCc4ccccc4)c3)ccc21 | label 0
* CNC(=O)Cn1cc(-c2cc3c(N[C@H](c4ccc5c(c4)S(=O)(=O)CCC5)C(C)C)ncnc3[nH]2)cn1 (racemic) | label 1
* CC(C)[C@@H](Nc1ncnc2[nH]c(-c3cnn(C)c3C#N)cc12)c1ccc2c(c1)OCCO2 | label 0
* CC(C)[C@H](Nc1ncnc2[nH]c(-c3cnn(C)c3C#N)cc12)c1ccc2c(n1)NC(=O)CO2 (single isomer, unassigned) | label 0
* N#C[C@H](Nc1cccc(C(=O)O)c1)c1cc(Cl)cc2[nH]ncc12 (racemic) | label 0

====

Conditions: mdck_mdr1
Response field label: string, one of satisfied (Papp strictly below 4 ×10⁻⁶ cm/s) or not satisfied.

- C=CC[C@H](Nc1ccc(-c2nn[nH]n2)cc1)c1cc(Cl)cc(NC(=O)OCc2ccccc2)c1 (racemic): satisfied
- O=C(NCC(F)F)[C@H](Nc1ccc2c(c1)CNC2)c1cc(Cl)cc(C2CC2)c1 (racemic): satisfied
- c1ccc2sc(C3CCN(Cc4c[nH]c5ccccc45)CC3)nc2c1: not satisfied
- O=C(Nc1cc(Cl)cc(C(=O)Nc2cccc(-n3nn[nH]c3=O)c2)c1)OCc1ccccc1: not satisfied
- Cn1ncc(-c2cc3c(N[C@H](c4ccc5c(n4)OCCO5)C(C)(C)C)ncnc3[nH]2)c1C#N (single isomer, unassigned): not satisfied
- Cn1c(=O)[nH]c2c(C(=O)Nc3ccc4c(c3)CNC4)cc(Br)cc21: satisfied
- CC(C)[C@H](Nc1ncnc2[nH]c(-c3cnn(C)c3C#N)cc12)c1ccc2c(n1)OCCO2 (racemic): not satisfied
- O=C(NCC(F)(F)F)c1cc(Cl)c(F)cc1NS(=O)(=O)c1ccc(Oc2ccccc2Cl)cc1: satisfied

====

Conditions: mouse; liver_microsomes
Outcome label depends on microsomal CLint relative to 200 µL/min/mg: at/above gives y, below gives n.

- COc1cc(Cc2c(-c3ccc(F)cc3)noc2C)nc(N2CCNCC2)n1: n
- O=C(Nc1ccc2c(c1)CNC2)c1cc(Cl)cc2[nH]ncc12: y
- CNC(=O)Cn1cc(-c2cc3c(N[C@H](c4ccc5c(c4)OCCO5)C(C)C)ncnc3[nH]2)cn1 (racemic): n
- CC(C)[C@H](Nc1ncnc2[nH]c(-c3cnn(CC(=O)N(C)C)c3)cc12)c1ccc2c(c1)S(=O)(=O)CCC2 (racemic): n
- O=C(Nc1cc2c(cc1Br)CNC2)c1cc(F)cc2[nH]ncc12: y
- Cc1cc(-c2noc(C(F)(F)F)n2)ccc1OCCCc1cc(C(=O)N(C)C)no1: n
- CC(C)[C@H](Nc1ncnc2[nH]c(-c3cnn(C)c3C#N)cc12)c1ccc2c(n1)NC(=O)CO2 (racemic): n
- CC(C)[C@H](Nc1ncnc2[nH]c(-c3cnn(CC(N)=O)c3)cc12)c1ccc2c(c1)OCCO2 (racemic): n
- CC(C)[C@H](Nc1ncnc2[nH]cc(C(=O)NC3CC3)c12)c1ccc2c(c1)S(=O)(=O)CCC2 (racemic): y
- O=C(Nc1ccc2c(c1)CNC2)c1cc(Cl)cc2ccncc12: n
- N#Cc1cc2c(cc1NC(=O)c1cc(F)cc3[nH]ncc13)CNC2: y
- CC(C)[C@H](Nc1ncnc2[nH]ccc12)c1ccc2c(c1)S(=O)(=O)CCC2 (racemic): n
- CC(C)[C@H](Nc1ncnc2[nH]c(-c3cncc(S(C)(=O)=O)c3)cc12)c1ccc2c(c1)S(=O)(=O)CCC2 (racemic): y
- CC(C)[C@H](Nc1ncnc2[nH]c(-c3ccc4cncn4c3)cc12)c1ccc2c(c1)S(=O)(=O)CCC2 (racemic): n
- CCCC[C@H](NC(=O)OC(C)(C)C)C(=O)N[C@H](C(=O)NCc1ccc(CN)cc1)c1ccc(OCc2ccccc2)cc1 (mixture of isomers): n
- COc1cc(-c2cc(NC(=O)c3cc(F)cc4[nH]ncc34)cc3c2CNC3)ccn1: y
- O=C(Nc1cc2c(c(C3=CCS(=O)(=O)CC3)c1)CNC2)c1cc(F)cc2[nH]ncc12: n

====

parameter-measured: logD

* C=CC[C@H]1NCc2cc(NC(=O)c3cc(F)cc4[nH]ncc34)ccc21 (racemic) | 1.7
* CC(C)[C@H](Nc1ncnc(N)c1Cl)c1ccc2c(c1)S(=O)(=O)CCC2 (racemic) | 2.4
* Cn1ncc(-c2cc3c(N[C@H](c4ccc5c(c4)OCCO5)C(C)(C)C)ncnc3[nH]2)c1C#N (racemic) | 2.9
* COc1ccc([C@H](CC(=O)O)NC(=O)c2ncnc3[nH]ccc23)cc1 (racemic) | -0.38
* O=C(Nc1ccccc1)Nc1ccc(C(=O)NC2c3cccc(O)c3CC2C(=O)O)cc1 (stereo not drawn) | 0.12
* CC(C)[C@H](Nc1ncnc2[nH]c(-c3cncc(S(C)(=O)=O)c3)cc12)c1ccc2c(c1)S(=O)(=O)CCC2 (racemic) | 3.1
* NCc1cc(C(=O)O)cc([C@@H]2C[C@H]2c2cc(Cl)cc(NC(=O)OCc3ccccc3)c2)c1 (racemic) | 2.7
* COc1ccc2c(c1)CCN(c1ncnc3[nH]ccc13)[C@H]2C(C)C (racemic) | 4.33
